Tgt: Autotaxin (ENPP2, NPP2) (Homo sapiens, UniProt Q13822 Q13822:36-863)
Test: inhibition
Measurement Label: log10(IC50) (log10 of the value in nM)
Please be aware that the numbers have been log10-transformed from IC50 in nM.

Look over these answered cases.
- UCUGAGGGAAACAGGUUUUGCUCCUCGGA (mixed, as 16(21) with PS at A10) [SEQ 16(22)]: -0.30
- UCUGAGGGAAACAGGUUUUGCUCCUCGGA (mixed, as 16(4) with dT25 dC26) [SEQ 16(11)]: 1.43
- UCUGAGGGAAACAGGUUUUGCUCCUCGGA (mixed, as 16(21) with dT1) [SEQ 16(40)]: -0.05
- UCUGGGGGAAACAGGUUUUGCUCCCCGGA (ssRNA, 2'-F pyrimidines, 2'-OH purines) [SEQ 44]: 1.58
- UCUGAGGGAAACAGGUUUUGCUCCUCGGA (mixed, 2'-F all pyrimidines; 2'-OMe G4 A5 G6 G7 A9 A11 A13 G20 G27 G28 A29; 2'-OH A10; dG8 dG14 dG15; 5' and 3' idT) [SEQ 16(21)]: 0.34
- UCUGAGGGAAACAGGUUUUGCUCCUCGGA (mixed, as 16(21) with 5' 80 kDa PEG (GL2-800GS2)-ssH linker instead of 5' idT) [SEQ 16(43)]: 0.48

Now let's try a different one.
Hello, please tell me recorded log10(IC50) for this one: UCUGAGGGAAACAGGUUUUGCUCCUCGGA (mixed, as 16(33) with PS at A10) [SEQ 16(37)] -0.60

Each recorded value in this set is attributed to patent US20170044545.
